EC50 listing for selected compounds.
- tested-on: UniProtKB P20393
- Sequence (P20393 284-614 limits assumed): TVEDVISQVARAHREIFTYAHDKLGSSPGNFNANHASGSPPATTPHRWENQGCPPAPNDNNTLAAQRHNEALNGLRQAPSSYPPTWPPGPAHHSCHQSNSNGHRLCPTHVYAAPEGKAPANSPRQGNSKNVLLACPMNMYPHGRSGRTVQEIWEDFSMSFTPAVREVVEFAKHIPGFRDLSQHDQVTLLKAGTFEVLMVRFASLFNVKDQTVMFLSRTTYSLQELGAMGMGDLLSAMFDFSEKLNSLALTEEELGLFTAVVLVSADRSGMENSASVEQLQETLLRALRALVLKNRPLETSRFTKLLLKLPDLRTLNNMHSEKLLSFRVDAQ
- protocol-notes: M2H (mammalian two-hybrid) cellular activation assay of Rev-Erb alpha
- Assay type: cell-based
- condition-context: M2H assay, HEK293 cells, Gal4-Rev-Erb alpha / VP16-NCoR, luciferase reporter

• Clc1nnc2ccc(Oc3ccc(CN4CCCCC4)cc3-c3ccccc3)nn12 = > 6000 nM
• Oc1cccc(-c2cc(F)c(F)cc2Oc2ccc3nnc(Cl)n3n2)c1 = 1000 to 6000 nM
• O=[N+]([O-])c1ccc(Oc2ccc3nnc(Cl)n3n2)c(-c2ccccc2)c1 = 1000 to 6000 nM

IN: EC50 lookup needed for `COc1ncc(-c2ccc(C(F)(F)F)cc2Oc2nn3c(Cl)nnc3cc2C)c(OC)n1` , thanks.
OUT: 1000 to 6000 nM

IN: If you can, please state the reported EC50 value of `CN1CCN(Cc2ccc(-c3ccccc3)c(Oc3ccc4nnc(Cl)n4n3)c2)CC1` .
OUT: > 6000 nM

----------
Counter-ions that a name gives are not always drawn.
Overview of reported melting point across a group of compounds:

For orientation, consider the following solved cases.
• Cc1cc(Oc2ccc3nnc(Cl)n3n2)c(-c2ccccc2)cc1C = 147.5 °C
• NCc1ccc(-c2ccccc2)c(Oc2ccc3nnc(Cl)n3n2)c1 (as salt: sodium) = 164.6 to 167.7 °C
• CC(C)c1cc2nnc(Cl)n2nc1Oc1cc(C(F)(F)F)ccc1-c1ccccc1 = 55 to 58 °C
• Cc1cc2nnc(C(F)(F)F)n2nc1Oc1cc(C(F)(F)F)ccc1-c1cccnc1 = 173 to 175 °C
• CC(C)CCNc1ccc(-c2ccccc2)c(Oc2ccc3nnc(Cl)n3n2)c1 = 145 to 150 °C
• FC(F)(F)c1ccc(-c2ccccc2)c(Oc2nn3c(Cl)nnc3cc2C2CC2)c1 = 130 to 133 °C
• COc1cccc(-c2cccc(Oc3ccc4nnc(Cl)n4n3)c2)c1 = 91.46 °C
• Cc1ccc2c(Oc3cc(C(F)(F)F)ccc3-c3ccccc3)nn3c(Cl)nnc3c2c1 = 229 to 231 °C

IN: Given the compound `CNc1ccc(Oc2ccc3nnc(Cl)n3n2)c(-c2ccccc2)c1` , what is its reported melting point?
OUT: 157 to 158 °C

----------
- tested-on: Rev-Erb alpha (Homo sapiens)
- protocol-notes: M2H (mammalian two-hybrid) cellular activation assay of Rev-Erb alpha
- Assay type: cell-based
- condition-context: M2H assay, HEK293 cells, Gal4-Rev-Erb alpha / VP16-NCoR, luciferase reporter
Here the recorded EC50 is given for each entry.

Examples with their reported EC50 follow.
• Cc1cccc(-c2ccccc2Oc2ccc3nnc(C(F)(F)F)n3n2)c1 = 100 to 1000 nM
• CCOc1ccc(-c2ccc(C(F)(F)F)cc2Oc2ccc3nnc(Cl)n3n2)cn1 = 1000 to 6000 nM
• CCN(CC)Cc1ccc(-c2ccccc2)c(Oc2ccc3nnc(Cl)n3n2)c1 = 1000 to 6000 nM
• CN1CCN(Cc2ccc(C(F)(F)F)cc2Oc2ccc3nnc(Cl)n3n2)CC1 = > 6000 nM

IN: Returns the measured EC50 for the input molecule. Input: `Oc1cccc(-c2ccc(C(F)(F)F)cc2Oc2ccc3nnc(Cl)n3n2)c1`
OUT: 100 to 1000 nM

----------
EC50 values by entry
- tested-on: UniProt:P20393
- Sequence (P20393 284-614 limits assumed): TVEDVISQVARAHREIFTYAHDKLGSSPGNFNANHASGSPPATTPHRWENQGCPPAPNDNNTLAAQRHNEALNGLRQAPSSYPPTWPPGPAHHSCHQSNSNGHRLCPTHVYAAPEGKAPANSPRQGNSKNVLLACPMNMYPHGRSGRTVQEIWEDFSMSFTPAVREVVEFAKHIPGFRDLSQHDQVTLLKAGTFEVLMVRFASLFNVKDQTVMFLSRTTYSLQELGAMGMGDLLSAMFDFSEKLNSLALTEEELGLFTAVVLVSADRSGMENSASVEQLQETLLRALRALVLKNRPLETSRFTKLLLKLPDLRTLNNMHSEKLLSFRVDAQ
- protocol-notes: TR-FRET (HTRF) assay of Rev-Erb alpha LBD with NCoR peptide ID1
- Format: biochemical
- condition-context: cell-free, Rev-Erb alpha LBD His 20 nM, NCoR ID1 30 nM

Field: example entries. Status: answers known.
- O=C(c1ccccc1)c1ccccc1Oc1ccc2nnc(Cl)n2n1: 1100 to 6000 nM
- Clc1nnc2ccc(Cc3ccccc3-c3ccccc3)nn12: 100 to 1000 nM
- FC(F)(F)c1nnc2ccc(Oc3ccccc3Cc3ccccc3)nn12: 100 to 1000 nM
- O=C(c1ccccc1)c1ccccc1Oc1ccc2nnc(C(F)(F)F)n2n1: 100 to 1000 nM

IN: Fill in the blank: the reported EC50 of `COc1ccc(-c2ccccc2)c(Oc2ccc3nnc(Cl)n3n2)c1` is ____.
OUT: < 100 nM

----------
Reported melting point values for the following compounds.

Below are worked cases with known answers.
* CCCCNc1ccc(-c2ccccc2)c(Oc2ccc3nnc(Cl)n3n2)c1 | 132 to 135 °C
* COC(=O)CCNc1ccc(Oc2ccc3nnc(Cl)n3n2)c(-c2ccccc2)c1 | 52 to 57 °C
* CCCNc1ccc(Oc2ccc3nnc(Cl)n3n2)c(-c2ccccc2)c1 | 55 to 58 °C

Field: next compound
IN: Field request: melting point | item: `Fc1ccc(-c2cc(F)ccc2Oc2ccc3nnc(Cl)n3n2)c(F)c1`
OUT: 143.6 °C

----------
- tested-on: Rev-Erb alpha (Homo sapiens)
- protocol-notes: M2H (mammalian two-hybrid) cellular activation assay of Rev-Erb alpha
- Format: cell-based
- condition-context: M2H assay, HEK293 cells, Gal4-Rev-Erb alpha / VP16-NCoR, luciferase reporter
pEC50: −log10 of the molar value. Structures can show the parent of a compound that is named as a salt.
reported-metric: pEC50

- O=C(c1ccccc1)c1cccc(Oc2ccc3nnc(C(F)(F)F)n3n2)c1 [Cpd.3-4]: 6.00 to 7.00
- Cc1cc2nnc(Cl)n2nc1Oc1cc(C(F)(F)F)ccc1-c1ccccc1 [Cpd.5-7]: 6.00 to 7.00
- Cc1ncccc1-c1ccc(C(F)(F)F)cc1Oc1nn2c(Cl)nnc2c2ccccc12 [Cpd.5-21]: 6.00 to 7.00
- COc1ncccc1-c1ccc(C(F)(F)F)cc1Oc1ccc2nnc(Cl)n2n1 [Cpd.4-80, hydrochloride]: 6.00 to 7.00

Consider the additional compound presented here.
IN: Item `CN(Cc1ccc(Oc2ccc3nnc(Cl)n3n2)c(-c2ccccc2)c1)C1CCCCC1` has what recorded pEC50?
OUT: 5.22 to 6.00

----------
Recorded measurements of pEC50, one per entry
- tested-on: Rev-Erb alpha (Homo sapiens, UniProt P20393)
- protocol-notes: M2H (mammalian two-hybrid) cellular activation assay of Rev-Erb alpha
- Assay type: cell-based
- condition-context: M2H assay, HEK293 cells, Gal4-Rev-Erb alpha / VP16-NCoR, luciferase reporter
- Method: In this system, Rev-Erb alpha or Rev-Erb beta is expressed as a fusion to the Gal4 DNA-binding domain and the cofactor NCoR is expressed as a fusion to the activation domain of the Herpes Simplex Virus tegument protein VP16. […] The pBS-SK+ vector was added to the preparation to adjust the DNA quantity to a fixed value for each condition. […] Cells were incubated 30 minutes with 40 μL/well of Steady Glow (Promega) and luminescence was read with TECAN Genios Pro (100 ms/w). […]
pEC50: −log10 of the molar value.

Previously resolved entries follow.
* COc1nccc(C)c1-c1ccc(C(F)(F)F)cc1Oc1nn2c(Cl)nnc2cc1C | 5.22 to 6.00
* COC(=O)c1cccc(-c2ccccc2Oc2ccc3nnc(Cl)n3n2)c1 | < 5.22
* Cc1cc(Oc2cc(C(F)(F)F)ccc2-c2cncnc2)nn2cnnc12 | < 5.22
* COc1ncc(-c2ccc(C(F)(F)F)cc2Oc2nn3c(Cl)nnc3c3ccccc23)cn1 | 6.00 to 7.00
* COc1ncccc1-c1ccc(C(F)(F)F)cc1Oc1nn2c(Cl)nnc2c(C)c1C | 5.22 to 6.00

IN: // lookup pEC50 for `CN(Cc1ccccc1)Cc1ccc(Oc2ccc3nnc(Cl)n3n2)c(-c2ccccc2)c1`
OUT: 6.00 to 7.00

Reference source: patent US9586963B2
